- Test system: PcaQ/P_H16_RS30145 3,4-dihydroxybenzoate biosensor (pEH161)
- testDescription: relative induction of RFP reporter vs primary effector (background-corrected); higher = stronger activation of the biosensor;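 also: RFP excited at 585 nm with emission read at 620 nm, culture medium blanks subtracted from fluorescence and absorbance prior to normalisation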
- particulars: inducer concentration 5 mM; 6 h; Cupriavidus necator H16; minimal medium + 0.4% gluconate
Let's look at some molecules and their measured relative induction of RFP reporter.

{"molecule": "OC[C@@H](O)[C@@H](O)[C@H](O)[C@H](O)CO [D-mannitol]", "relative induction of RFP reporter, %": 0.0552}
{"molecule": "CCC(=O)O [propanoate]", "relative induction of RFP reporter, %": -0.275}
{"molecule": "O=C(O)CC(=O)C(=O)O [oxaloacetate]", "relative induction of RFP reporter, %": -0.0492}
{"molecule": "Oc1ccc(O)cc1 [hydroquinone]", "relative induction of RFP reporter, %": 0.229}
{"molecule": "Oc1ccccc1 [phenol]", "relative induction of RFP reporter, %": -0.0887}
{"molecule": "O=c1[nH]cnc2nc[nH]c12 [hypoxanthine]", "relative induction of RFP reporter, %": -0.186}
{"molecule": "NC(=O)CC[C@H](N)C(=O)O [L-glutamine]", "relative induction of RFP reporter, %": -0.146}
{"molecule": "O=C(O)C1=C[C@@H](O)[C@@H](O)[C@H](O)C1 [shikimate]", "relative induction of RFP reporter, %": 2.49}
{"molecule": "O=C(O)[C@@H](O)[C@@H](O)[C@H](O)[C@@H](O)C(=O)O [glucarate]", "relative induction of RFP reporter, %": 0.00441}
{"molecule": "O=C(O)C(O)C(=O)O [tartronic acid]", "relative induction of RFP reporter, %": -0.0557}
{"molecule": "O=c1cc[nH]c(=O)[nH]1 [uracil]", "relative induction of RFP reporter, %": -0.0843}
{"molecule": "CC(=O)CCC(=O)O [levulinic acid]", "relative induction of RFP reporter, %": -0.265}

###

Let's look at some molecules and their measured relative induction of RFP reporter.
- System: GabR/P_H16_RS23655 GABA biosensor (pEH256)
- testDescription: relative induction of RFP reporter vs primary effector (background-corrected); higher = stronger activation of the biosensor
- particulars: inducer concentration 5 mM; 6 h; Cupriavidus necator H16; minimal medium + 0.4% gluconate

{"molecule": "O=CC(=O)O [glyoxylate]", "testSystem": "GabR/P_H16_RS23655 GABA biosensor (pEH256)", "relative induction of RFP reporter": "-0.762%"}
{"molecule": "NCC(=O)O", "testSystem": "GabR/P_H16_RS23655 GABA biosensor (pEH256)", "relative induction of RFP reporter": "0.401%"}
{"molecule": "O=C(O)C(O)C(=O)O", "testSystem": "GabR/P_H16_RS23655 GABA biosensor (pEH256)", "relative induction of RFP reporter": "-0.481%"}
{"molecule": "CCCC(=O)O", "testSystem": "GabR/P_H16_RS23655 GABA biosensor (pEH256)", "relative induction of RFP reporter": "-2.45%"}
{"molecule": "OC[C@@H](O)[C@@H](O)[C@H](O)[C@H](O)CO", "testSystem": "GabR/P_H16_RS23655 GABA biosensor (pEH256)", "relative induction of RFP reporter": "-0.506%"}
{"molecule": "Oc1cccc(O)c1", "testSystem": "GabR/P_H16_RS23655 GABA biosensor (pEH256)", "relative induction of RFP reporter": "-1.35%"}
{"molecule": "O=C(O)CNC(=O)c1ccccc1", "testSystem": "GabR/P_H16_RS23655 GABA biosensor (pEH256)", "relative induction of RFP reporter": "-0.301%"}
{"molecule": "Oc1ccc(O)cc1 [hydroquinone]", "testSystem": "GabR/P_H16_RS23655 GABA biosensor (pEH256)", "relative induction of RFP reporter": "8.11%"}
{"molecule": "CCC(=O)O [propanoate]", "testSystem": "GabR/P_H16_RS23655 GABA biosensor (pEH256)", "relative induction of RFP reporter": "-3.91%"}
{"molecule": "NCC(N)C(=O)O (stereo not drawn) [2,3-diaminopropanoate]", "testSystem": "GabR/P_H16_RS23655 GABA biosensor (pEH256)", "relative induction of RFP reporter": "-1.16%"}
{"molecule": "NC(C(=O)O)c1ccccc1 (racemic)", "testSystem": "GabR/P_H16_RS23655 GABA biosensor (pEH256)", "relative induction of RFP reporter": "-1.88%"}
{"molecule": "O=C(O)CC(CC(=O)O)C(=O)O [tricarballylate]", "testSystem": "GabR/P_H16_RS23655 GABA biosensor (pEH256)", "relative induction of RFP reporter": "-2.41%"}
{"molecule": "CC(=O)CCC(=O)O", "testSystem": "GabR/P_H16_RS23655 GABA biosensor (pEH256)", "relative induction of RFP reporter": "-2.89%"}
